Known EC50 of a selection of compounds
test system: HEL; test: Effective concentration against human cytomegalovirus AD-169 strain in HEL cell cultures; format: functional, cell-based
Measurement Type: EC50 (µM)

1. C[C@@H](NC(=O)N1C(=O)C[C@@]1(Cc1ccccc1)C(=O)OC(C)(C)C)c1ccccc1 :: 32
2. C[C@@H](NC(=O)N1C(=O)C[C@]1(Cc1ccccc1)C(=O)OC(C)(C)C)c1ccccc1 :: 100
3. CC(C)(C)OC(=O)C1(Cc2ccccc2)CC(=O)N1C(=O)OCc1ccccc1 (centres undefined) :: 11
4. C[C@H](NC(=O)N1C(=O)C[C@@]1(Cc1ccccc1)C(=O)OC(C)(C)C)c1ccccc1 :: 35
5. CC(C)(C)OC(=O)C1(Cc2ccccc2)CC(=O)N1C(=O)Nc1ccccc1 (centres undefined) :: 50

====

Known pEC50 of a selection of molecules
tested on: HEL; test: Effective concentration against human cytomegalovirus AD-169 strain in HEL cell cultures; format: functional, cell-based
pEC50: −log10 of the molar value.
Measurement Type: pEC50

1) C[C@H](NC(=O)N1C(=O)C[C@]1(Cc1ccccc1)C(=O)O)c1ccccc1 :: < 3.70
2) CC(C)(C)OC(=O)N1C(=O)CC1(Cc1ccccc1)C(=O)OC(C)(C)C (centres undefined) :: < 3.70
3) C[C@H](NC(=O)N1C(=O)C[C@@]1(Cc1ccccc1)C(=O)O)c1ccccc1 :: < 4.30
4) C[C@@H](NC(=O)N1C(=O)C[C@]1(Cc1ccccc1)C(=O)O)c1ccccc1 :: < 4.30
